Source of measurements: patent US20120276102A1

# test-system: T1, cynomolgus monkey IL-21R expressed on cells (cynomolgus monkey, UniProt G7Q0S8 41-559)
# T1 construct: whole, on cells
# method: cell ELISA, CHO cells
# Protocol: A subset of binding proteins was tested for binding to rat, cynomolgus monkey, human IL-21R, or human IL-2R-γ common subunit expressed transiently on the surfaces of CHO-PA-Dukx cells. Cells were transfected 48 hr prior to the assay. […] Cells were incubated with 100 μl TMB until the color reaction reached saturation, stopped with 100 μl of 0.18 M H₂SO₄, and read at A450 on a Perkin Elmer ENVISION™ plate reader.
measured-endpoint: A450 (13 nM Ab)

Below: 2 binders and their reported A450 (13 nM Ab).
binder: AbA (antibody, V domains shown, Human IgG1/lambda, transiently expressed; also called VHP/VL2) VH: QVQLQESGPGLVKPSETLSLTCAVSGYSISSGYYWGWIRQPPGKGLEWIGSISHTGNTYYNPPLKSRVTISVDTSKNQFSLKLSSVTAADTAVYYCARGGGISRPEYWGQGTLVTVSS VL: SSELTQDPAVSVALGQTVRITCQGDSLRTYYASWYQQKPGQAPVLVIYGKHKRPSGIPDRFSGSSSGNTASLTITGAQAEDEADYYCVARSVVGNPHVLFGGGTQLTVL
result: 1.35 A450
--
binder: AbF (antibody, IgG1, V domains shown, As for AbA: IgG1/lambda, CDR3 graft, residue limits derived; also called VHP/VL17) VH: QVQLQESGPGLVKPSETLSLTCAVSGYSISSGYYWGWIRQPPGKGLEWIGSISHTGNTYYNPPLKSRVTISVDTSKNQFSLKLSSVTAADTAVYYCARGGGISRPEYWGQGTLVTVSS VL: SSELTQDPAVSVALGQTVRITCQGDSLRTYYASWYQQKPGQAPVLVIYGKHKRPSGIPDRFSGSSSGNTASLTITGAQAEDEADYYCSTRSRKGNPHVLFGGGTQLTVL
result: 1.46 A450

Q: Bench note: what A450 (13 nM Ab) did AbT (antibody, human IgG1, V domains shown, CDR3 graft, residue limits derived as for m29; also called VHP/VL9; VHPTM/VL9) VH: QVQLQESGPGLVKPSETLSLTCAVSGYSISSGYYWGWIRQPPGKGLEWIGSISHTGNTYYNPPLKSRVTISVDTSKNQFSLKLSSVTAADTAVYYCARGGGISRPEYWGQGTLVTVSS VL: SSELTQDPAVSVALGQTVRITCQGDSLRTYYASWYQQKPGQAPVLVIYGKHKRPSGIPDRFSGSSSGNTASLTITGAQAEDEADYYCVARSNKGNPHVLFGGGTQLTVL show?
Ans: 1.22 A450
